Exercise: state measured EC50 for each of the compounds provided.
Molecular target: Alpha-1A adrenergic receptor (Homo sapiens)
Sequence (P35348 whole entry): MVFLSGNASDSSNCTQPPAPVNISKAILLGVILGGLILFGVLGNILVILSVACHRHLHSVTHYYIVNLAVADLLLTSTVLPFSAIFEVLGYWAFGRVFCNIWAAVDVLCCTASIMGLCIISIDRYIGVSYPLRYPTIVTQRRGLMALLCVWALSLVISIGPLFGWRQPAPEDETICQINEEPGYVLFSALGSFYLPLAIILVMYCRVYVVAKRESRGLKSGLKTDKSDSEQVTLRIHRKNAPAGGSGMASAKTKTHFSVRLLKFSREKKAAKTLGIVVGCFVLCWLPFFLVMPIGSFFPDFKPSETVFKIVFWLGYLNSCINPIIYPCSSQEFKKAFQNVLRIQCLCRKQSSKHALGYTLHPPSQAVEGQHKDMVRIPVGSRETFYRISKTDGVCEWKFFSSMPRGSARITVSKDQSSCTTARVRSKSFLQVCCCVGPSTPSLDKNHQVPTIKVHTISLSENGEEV
Assay: Activation of human alpha-1A adrenergic receptor expressed in rat-1 fibroblasts
Give bare numbers, in nM.

Items follow; give EC50 for each.
1. Oc1ccc2cccc(NCc3c[nH]cn3)c2c1
2. CS(=O)(=O)c1ccccc1NCC1=NCCN1
3. c1ccc(N2CCCCC2)c(NCC2=NCCN2)c1

1: 63.1; 2: 50.1; 3: 12.6

====

Exercise: state measured EC50 for each of the compounds provided.
Molecular target: Alpha-1D adrenergic receptor (Homo sapiens, UniProt P25100)
Sequence (P25100 whole entry): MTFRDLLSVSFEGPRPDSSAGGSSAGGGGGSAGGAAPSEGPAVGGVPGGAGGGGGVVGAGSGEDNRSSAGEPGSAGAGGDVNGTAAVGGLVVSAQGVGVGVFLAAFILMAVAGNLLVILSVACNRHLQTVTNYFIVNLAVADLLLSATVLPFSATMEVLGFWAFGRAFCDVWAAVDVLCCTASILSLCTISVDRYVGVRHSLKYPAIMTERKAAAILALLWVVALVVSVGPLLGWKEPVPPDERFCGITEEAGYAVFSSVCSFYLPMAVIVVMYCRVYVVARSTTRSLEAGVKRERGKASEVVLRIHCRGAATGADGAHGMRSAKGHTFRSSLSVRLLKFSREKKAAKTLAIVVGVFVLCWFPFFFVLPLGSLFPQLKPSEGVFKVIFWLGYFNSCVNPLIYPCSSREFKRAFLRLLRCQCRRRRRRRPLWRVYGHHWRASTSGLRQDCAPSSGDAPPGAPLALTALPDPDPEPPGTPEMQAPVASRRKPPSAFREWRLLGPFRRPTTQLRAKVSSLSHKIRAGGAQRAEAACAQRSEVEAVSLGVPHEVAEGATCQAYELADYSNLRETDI
Test: Activation of human Alpha-1D adrenergic receptors expressed in rat-1 fibroblasts

Below, each entry is followed by its recorded EC50 result.
c1ccc(-c2ccccc2OCc2c[nH]cn2)cc1: > 100000 nM
CSc1ccccc1NCC1=NCCN1: 7.94 nM
Oc1ccc2cccc(NCC3=NCCN3)c2c1: 31.6 nM
CCN(CC)C(=O)c1ccccc1OCc1c[nH]cn1: > 100000 nM
COc1ccc(S(C)(=O)=O)c(NCC2=NCCN2)c1: > 100000 nM

Turning now to a further record.
Given item CCN(CC)C(=O)c1ccccc1NCc1c[nH]cn1 , the value recorded as its EC50 is > 5010 nM
